Assay: Oral bioavailability in rat at 5 mg/kg
Assay type: ADME, organism-based
Conditions: in vivo

| structure.smiles.string | output.unit | bioavailability |
| --- | --- | --- |
| O=c1[nH]c(=O)c(Cc2cccc(C(F)(F)F)c2)c([C@H]2CC[C@@H](c3ccccc3)CC2)[nH]1 | % | 20 |

====

This section presents compounds with their documented Ki values.
Target: Glucocorticoid receptor (Homo sapiens, UniProt P04150)
Assay: Displacement of [3H]dexamethasone from human recombinant glucocorticoid receptor expressed in baculovirus after 18 hrs by scintillation counting analysis
assay.endpoint: Ki (nM)

| structure.smiles.string | output.unit | bound.operator | experimental.result |
| --- | --- | --- | --- |
| COc1ccccc1Cc1c(=O)[nH]c(=O)[nH]c1[C@H]1CC[C@@H](c2ccccc2)CC1 | nM | = | 9 |
| O=c1[nH]c(=O)c(Cc2ccccc2Cl)c([C@H]2CC[C@@H](c3ccccc3)CC2)[nH]1 | nM | = | 7 |
| CCc1ccccc1Cc1c(=O)[nH]c(=O)[nH]c1[C@H]1CC[C@@H](c2ccccc2)CC1 | nM | = | 19 |
| Cc1ccnc(Cc2c(=O)[nH]c(=O)[nH]c2[C@H]2CC[C@@H](c3ccccc3)CC2)c1 | nM | = | 21 |
| O=c1[nH]c(=O)c(Cc2c(Cl)cccc2Cl)c([C@H]2CC[C@@H](c3ccccc3)CC2)[nH]1 | nM | = | 11 |
| Cn1c(=O)[nH]c([C@H]2CC[C@@H](c3ccccc3)CC2)c(Cc2ccccc2)c1=O | nM | = | 24 |
| CS(=O)(=O)c1ccccc1Cc1c(=O)[nH]c(=O)[nH]c1[C@H]1CC[C@@H](c2ccccc2)CC1 | nM | = | 557 |
| O=c1[nH]c([C@H]2CC[C@@H](c3ccccc3)CC2)c(Cc2cccc(C(F)(F)F)c2)c(=O)n1CCO | nM | = | 98 |
| Cc1cc(Cc2c(=O)[nH]c(=O)[nH]c2[C@H]2CC[C@@H](c3ccccc3)CC2)ccn1 | nM | > | 50 |

====

Assay: Plasma protein binding in rat
Type: ADME, cell-free
Details: read-out: PPB
assay.endpoint: fraction unbound

| structure.smiles.string | assay.endpoint | experimental.result |
| --- | --- | --- |
| O=c1[nH]c(=O)c(Cc2cccc(C(F)(F)F)c2)c([C@H]2CC[C@@H](c3ccccc3)CC2)[nH]1 | fraction unbound | < 0.001 |

====

Target: Glucocorticoid receptor (Homo sapiens, UniProt P04150)
Sequence (P04150 whole entry): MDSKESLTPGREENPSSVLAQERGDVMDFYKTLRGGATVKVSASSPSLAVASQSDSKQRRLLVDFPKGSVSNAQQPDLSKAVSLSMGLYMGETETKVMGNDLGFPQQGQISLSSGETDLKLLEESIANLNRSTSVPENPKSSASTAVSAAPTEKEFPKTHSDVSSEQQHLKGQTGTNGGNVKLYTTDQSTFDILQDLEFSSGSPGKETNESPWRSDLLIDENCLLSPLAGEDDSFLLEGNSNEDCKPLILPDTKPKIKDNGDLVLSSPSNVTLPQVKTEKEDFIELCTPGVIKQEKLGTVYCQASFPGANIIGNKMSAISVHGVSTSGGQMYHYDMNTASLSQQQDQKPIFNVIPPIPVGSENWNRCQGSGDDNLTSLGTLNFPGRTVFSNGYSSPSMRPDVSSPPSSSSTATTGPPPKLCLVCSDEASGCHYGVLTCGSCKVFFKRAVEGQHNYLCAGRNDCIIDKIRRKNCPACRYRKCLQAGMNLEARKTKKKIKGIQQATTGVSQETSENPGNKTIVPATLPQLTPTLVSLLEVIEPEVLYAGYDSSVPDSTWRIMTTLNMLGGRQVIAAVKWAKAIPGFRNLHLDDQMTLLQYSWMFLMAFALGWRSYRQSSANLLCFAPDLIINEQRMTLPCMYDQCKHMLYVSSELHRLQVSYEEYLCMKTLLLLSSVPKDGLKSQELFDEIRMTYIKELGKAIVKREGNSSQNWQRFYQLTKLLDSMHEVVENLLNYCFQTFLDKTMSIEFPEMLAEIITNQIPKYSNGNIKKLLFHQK
Experiment: Displacement of [3H]dexamethasone from human recombinant glucocorticoid receptor expressed in baculovirus after 18 hrs by scintillation counting analysis
pKi: −log10 of the molar value.
This section presents compounds with their documented pKi values.

| structure.smiles.string | study.target | bound.operator | pKi |
| --- | --- | --- | --- |
| O=c1[nH]c(N2CCC(c3ccccc3)CC2)c(Cc2ccccc2)c(=O)[nH]1 | Glucocorticoid receptor (Homo sapiens, UniProt P04150) | = | 8.10 |
| COCCn1c(=O)[nH]c([C@H]2CC[C@@H](c3ccccc3)CC2)c(Cc2cccc(C(F)(F)F)c2)c1=O | Glucocorticoid receptor (Homo sapiens, UniProt P04150) | < | 7.30 |
| Cc1cccc(Cc2c(=O)n(C)c(=O)[nH]c2[C@H]2CC[C@@H](c3ccccc3)CC2)c1 | Glucocorticoid receptor (Homo sapiens, UniProt P04150) | = | 7.72 |
| O=c1[nH]c(=O)c(Cc2ncccn2)c([C@H]2CC[C@@H](c3ccccc3)CC2)[nH]1 | Glucocorticoid receptor (Homo sapiens, UniProt P04150) | = | 6.40 |
| O=c1[nH]c(=O)c(Cc2ccccn2)c([C@H]2CC[C@@H](c3ccccc3)CC2)[nH]1 | Glucocorticoid receptor (Homo sapiens, UniProt P04150) | = | 6.73 |
| Cc1cccc(Cc2c(=O)[nH]c(=O)[nH]c2[C@H]2CC[C@@H](c3ccccc3)CC2)n1 | Glucocorticoid receptor (Homo sapiens, UniProt P04150) | = | 7.66 |
| O=c1[nH]c(=O)c(Cc2ccccc2)c([C@H]2CC[C@@H](c3ccccc3)CC2)[nH]1 | Glucocorticoid receptor (Homo sapiens, UniProt P04150) | = | 7.49 |
| O=c1[nH]c(=O)c(Cc2nccs2)c([C@H]2CC[C@@H](c3ccccc3)CC2)[nH]1 | Glucocorticoid receptor (Homo sapiens, UniProt P04150) | = | 6.86 |
| O=c1[nH]c(=O)c(Cc2cc(Cl)ccc2Cl)c([C@H]2CC[C@@H](c3ccccc3)CC2)[nH]1 | Glucocorticoid receptor (Homo sapiens, UniProt P04150) | = | 8.10 |

====

Molecular target: Glucocorticoid receptor (Homo sapiens)
Sequence (P04150 whole entry): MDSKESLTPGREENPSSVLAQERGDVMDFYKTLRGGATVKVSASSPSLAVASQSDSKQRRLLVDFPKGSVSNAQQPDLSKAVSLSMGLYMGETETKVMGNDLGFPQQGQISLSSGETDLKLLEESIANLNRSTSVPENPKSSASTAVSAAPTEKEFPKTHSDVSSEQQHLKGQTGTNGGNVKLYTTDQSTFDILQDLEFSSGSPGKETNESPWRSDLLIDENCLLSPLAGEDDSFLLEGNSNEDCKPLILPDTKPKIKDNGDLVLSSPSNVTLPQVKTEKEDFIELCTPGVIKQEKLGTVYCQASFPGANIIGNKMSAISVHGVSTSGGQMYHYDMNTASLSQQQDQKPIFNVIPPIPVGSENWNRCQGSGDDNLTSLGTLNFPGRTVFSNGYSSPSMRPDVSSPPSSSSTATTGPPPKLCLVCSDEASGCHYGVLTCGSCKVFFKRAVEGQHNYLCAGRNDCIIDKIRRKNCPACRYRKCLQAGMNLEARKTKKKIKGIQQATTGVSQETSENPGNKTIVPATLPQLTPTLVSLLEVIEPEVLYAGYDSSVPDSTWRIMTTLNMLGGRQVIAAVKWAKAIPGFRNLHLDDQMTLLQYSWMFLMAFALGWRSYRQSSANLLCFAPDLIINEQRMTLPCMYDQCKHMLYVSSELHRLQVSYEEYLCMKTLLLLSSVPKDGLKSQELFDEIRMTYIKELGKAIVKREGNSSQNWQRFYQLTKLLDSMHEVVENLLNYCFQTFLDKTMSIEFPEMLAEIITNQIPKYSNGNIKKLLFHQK
Assay: Displacement of [3H]dexamethasone from human recombinant glucocorticoid receptor expressed in baculovirus after 18 hrs by scintillation counting analysis
pKi: −log10 of the molar value.
Label t when pKi >= 8; otherwise f.

| structure.smiles.string | group |
| --- | --- |
| Cc1cccc(Cc2c(=O)[nH]c(=O)[nH]c2[C@H]2CC[C@@H](c3ccccc3)CC2)c1 | t |
| O=c1[nH]c(=O)c(Cc2cccc(C(F)(F)F)n2)c([C@H]2CC[C@@H](c3ccccc3)CC2)[nH]1 | f |
| O=c1[nH]c(=O)c(Cc2cccc(Cl)c2Cl)c([C@H]2CC[C@@H](c3ccccc3)CC2)[nH]1 | t |
| O=c1[nH]c(=O)c(Cc2ncccc2Cl)c([C@H]2CC[C@@H](c3ccccc3)CC2)[nH]1 | f |
| Cc1csc(Cc2c(=O)[nH]c(=O)[nH]c2[C@H]2CC[C@@H](c3ccccc3)CC2)n1 | f |

====

This section presents compounds with their documented pKi values.
Molecular target: Glucocorticoid receptor (Homo sapiens)
Assay: Antagonist activity at glucocorticoid receptor in human SW1353 cells assessed as inhibition of dexamethasone-induced luciferase expression after 16 hrs by MMTV5 reporter gene assay
Format: functional, cell-based
pKi: −log10 of the molar value.

| structure.smiles.string | bound.operator | pKi |
| --- | --- | --- |
| O=c1[nH]c([C@H]2CC[C@@H](c3ccccc3)CC2)c(Cc2cccc(C(F)(F)F)c2)c(=O)n1CCO | < | 5.52 |
| Cc1cccc(Cc2c(=O)[nH]c(=O)[nH]c2[C@H]2CC[C@@H](c3ccccc3)CC2)n1 | = | 7.24 |
| O=c1[nH]c(=O)c(Cc2ncccn2)c([C@H]2CC[C@@H](c3ccccc3)CC2)[nH]1 | < | 5.52 |
| Cn1nccc1Cc1c(=O)[nH]c(=O)[nH]c1[C@H]1CC[C@@H](c2ccccc2)CC1 | < | 5.52 |
| O=c1[nH]c(=O)c(Cc2nccs2)c([C@H]2CC[C@@H](c3ccccc3)CC2)[nH]1 | < | 6.52 |
| Cn1c(=O)[nH]c([C@H]2CC[C@@H](c3ccccc3)CC2)c(Cc2ccccc2)c1=O | = | 7.24 |
| O=c1[nH]c(=O)c(Cc2ccccc2)c([C@H]2CC[C@H](c3ccccc3)CC2)[nH]1 | = | 7.36 |
| O=c1[nH]c(=O)c(Cc2ccccn2)c([C@H]2CC[C@@H](c3ccccc3)CC2)[nH]1 | = | 6.47 |
| Cc1ccnc(Cc2c(=O)[nH]c(=O)[nH]c2[C@H]2CC[C@@H](c3ccccc3)CC2)c1 | = | 7.36 |
| O=c1[nH]c(=O)c(Cc2cccc(Cl)c2Cl)c([C@H]2CC[C@@H](c3ccccc3)CC2)[nH]1 | = | 7.60 |
| COc1ccccc1Cc1c(=O)[nH]c(=O)[nH]c1[C@H]1CC[C@@H](c2ccccc2)CC1 | = | 7.25 |
| Cc1cccc(Cc2c(=O)n(CCN(C)C)c(=O)[nH]c2[C@H]2CC[C@@H](c3ccccc3)CC2)c1 | < | 6.52 |
| O=c1[nH]c(=O)c(Cc2cc(Cl)ccc2Cl)c([C@H]2CC[C@@H](c3ccccc3)CC2)[nH]1 | = | 7.64 |
| Cc1csc(Cc2c(=O)[nH]c(=O)[nH]c2[C@H]2CC[C@@H](c3ccccc3)CC2)n1 | = | 6.92 |
| CCc1ccccc1Cc1c(=O)[nH]c(=O)[nH]c1[C@H]1CC[C@@H](c2ccccc2)CC1 | = | 7.11 |
| O=c1[nH]c(=O)c(Cc2ccccc2Cl)c([C@H]2CC[C@@H](c3ccccc3)CC2)[nH]1 | = | 7.43 |
| O=c1[nH]c(=O)c(Cc2ccc(Cl)cc2Cl)c([C@H]2CC[C@@H](c3ccccc3)CC2)[nH]1 | = | 7.36 |
